Test system: OVCAR-8 ovarian
Test: NCI-60 one-dose screen, 48 h (100 = growth as untreated, 0 = no growth, -100 = all killed)
Conditions: 10 µM
About 83,000 compounds went through this panel and 20% of them were active in at least one assay; those are over-represented in the sample as a whole.
Below, each of the compounds is paired with its reported growth value.
Give your result in % as a bare value.

These solved cases illustrate the format of a correct answer.
# compound, growth, %
measured = [
    ("COc1cc(-c2nn(-c3cccc(NC(=O)CCN4CCN(c5ccccc5)CC4)c3)cc2-c2ccncc2)ccc1Cl", 22.6),
    ("Clc1ccc(Cc2ccncc2)cc1", 99),
    ("O=C1c2ccccc2-c2c1c1cccnc1c(=O)n2C[C@H](O)CO", 58.7),
    ("COc1cc2c3c(n(C4CCNCC4)c(=O)c2cc1OC)-c1cc2c(cc1C3=O)OCO2", -43.1),
]

Exercise: Please give measured growth of the following entry: C=CCNCCN1C(=O)c2ccc3c4c(ccc(c24)C1=O)C(=O)N(CCNCC=C)C3=O
Solution: -24

Exercise: Check the records and state growth for CCCCN(CCCC)C(=O)[C@H](CC)[C@@H]1CC[C@@H](C)[C@@H]([C@H](C)[C@@H](O)[C@@H](C)C(=O)[C@H](CC)C2O[C@]3(C=CC(=O)[C@]4(CC[C@@](C)([C@H]5CC[C@](O)(CC)[C@H](C)O5)O4)O3)[C@H](C)C[C@@H]2C)O1 (some centres undefined)
Solution: 34.7

###

System: ACHN renal
Test: NCI-60 one-dose screen, 48 h (100 = growth as untreated, 0 = no growth, -100 = all killed)
Conditions: 10 µM
Compounds without any hit were thinned out: in the full panel of roughly 83,000, 20% have a hit.
growth vs 60%: at or above is true, below is false.

# compound, discreteLabel
rows = [
    ("COc1cc2c3c(n([C@H]4CCOC4)c(=O)c2cc1OC)-c1cc2c(cc1C3=O)OCO2", "false"),
    ("CS(=O)(=O)c1nccc(-c2c(-c3ccc(OCCc4ccccc4)cc3)nc3sccn23)n1", "true"),
    ("CC(=O)O[C@@]12CO[C@@H]1C[C@H](O)[C@@]1(C)C(=O)[C@H](O)C3=C(C)[C@@H](OC(=O)[C@H](O)[C@@H](NC(=O)OC(C)(C)C)c4ccccc4)C[C@@](O)([C@@H](OC(=O)c4ccccc4)C12)C3(C)C (some centres undefined)", "false"),
]

Exercise: Does growth meet or surpass 60% for Cn1cnc([N+](=O)[O-])c1/C=C1\Oc2ccc(Br)cc2C1=O ?
Solution: true

Exercise: Check if growth >= 60% (inclusive). Item: Fc1ccc(C(c2ccc(F)cc2)C(Cl)Cl)cc1
Solution: true

Exercise: Hi team, for O=S(=O)(O)c1ccc(Cl)cc1 , is the recorded growth at or above 60%?
Solution: true

Exercise: Is reported growth greater than or equal to 60% here: O=C(CCC(C(=O)c1ccccc1)c1ccccc1)c1ccccc1 (centres undefined)
Solution: true

Exercise: Could you please find out whether Nc1cc(Br)c(-c2nn3c(CCC(=O)c4nc5ccccc5[nH]4)nnc3s2)c(Br)c1 has growth that meets 60% or exceeds it?
Solution: true

###

Test system: UO-31 renal
Assay: NCI-60 one-dose screen, 48 h (100 = growth as untreated, 0 = no growth, -100 = all killed)
Details: 10 µM
Compounds without any hit were thinned out: in the full panel of roughly 83,000, 20% have a hit.
Tag: Yes if measured growth is not below 60%, No if it is.

# compound, discreteLabel
rows = [
    ("COc1cc(C(=O)N2CCN(c3cc4c(cc3F)c(=O)c(C(=O)NO)cn4C3CC3)CC2)cc(OC)c1OC", "Yes"),
    ("CCOC(=O)c1cc(C(=O)c2ccc(OC)c(OC)c2)n2c1ccc1ccc3cccnc3c12", "No"),
    ("C=CCn1c(SCC(=O)Nc2ccc(C(=O)/C=C/c3cc(OC)c(OC)c(OC)c3)cc2)nnc1-c1cc(-c2ccc(Cl)cc2)nc2ccccc12", "No"),
    ("COc1cc2cc(Oc3ccc(NC(=O)c4ccccc4)cc3)c(C)nc2cc1OC", "Yes"),
    ("CCOC(=O)/C(=C(\\C)N)C1CC(=O)NC1=O (stereo not drawn)", "Yes"),
    ("CC[C@@H](C(=O)[C@@H](C)[C@@H](O)[C@H](C)[C@@H]1O[C@@H]([C@@H](CC)C(=O)O)CC[C@@H]1C)C1O[C@]2(C=CC(=O)[C@]3(CC[C@@](C)([C@H]4CC[C@](O)(CC)[C@H](C)O4)O3)O2)[C@H](C)C[C@@H]1C (stereo partly drawn)", "No"),
]

Exercise: In plain terms: is recorded growth at least 60% for C#C[C@]1(O)CCC2C3CCc4cc(OC5CCCC5)ccc4C3CC[C@@]21C (stereo partly drawn) ?
Solution: Yes

Exercise: Please indicate if the recorded growth for COc1ccc(-c2nn(-c3cccc(Cl)c3)cc2-c2c(C#N)c(=O)n3[nH]c(-c4ccc(C)cc4)nc3c2C#N)cc1 meets or exceeds 60%.
Solution: No
